# key: entry, value: pKd
SYSTEM: T1, purified human monomeric 4-1BB (human, UniProt Q07011 24-186)
T1 construct: the assay used the 4-1BB part released by Factor Xa with the Fc removed; also called h4-1BB; human 4-1BB
T1 sequence (Q07011 other isoform, or with tags, fused parts or gaps limits assumed): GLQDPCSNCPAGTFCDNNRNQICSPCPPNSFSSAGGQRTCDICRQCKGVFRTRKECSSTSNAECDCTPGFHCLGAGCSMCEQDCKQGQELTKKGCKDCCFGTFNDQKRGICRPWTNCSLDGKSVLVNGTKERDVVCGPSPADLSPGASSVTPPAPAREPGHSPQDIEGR
ASSAY_NAME: SPR, mean n=3;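 note: antibodies captured on anti-human Fc chip, 4-1BB injected as five-point two-fold series from 40 nM by single-cycle kinetics at 25 °C, sensorgrams fitted to 1:1 Langmuir model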
The scale used: pKd is minus the common logarithm of the concentration in molar units.

BINDER	pKd
v28705 (antibody, human IgG1, kappa, L234A L235A, V domains shown, also called humanized 5G8 H3L3) VH: QVQLQESGPGLVKPSETLSITCTVSGFSLISYGVHWVRQPPGKGLEWLGVIWSGGSTDYNPSLKSRVTISKDTSKNQVSFKLSSLTAADTAIYYCARNPLTATVMDYWGQGTLVTVSS VL: DIQMTQSPSSLSASVGDRVTVTCRASQNVGTNVAWYQQKPGKAPKALIYSASYRDSGVPSRFSGSGSGTDFTLTISSVQPEDFATYYCQQYNSYPLTFGGGTKLEIKR	6.71
v28707 (antibody, human IgG1, kappa, L234A L235A, V domains shown, also called humanized 5G8 H4L1) VH: QVQLQESGPGLVKPSETLSITCTVSGFSLISYGVHWVRQPPGKGLEWLGVIWSGGSTDYNPSLKSRVTISKDNSKNQVSFKLSSLTAADTAIYYCARNPLTATVMDYWGQGTLVTVSS VL: DIQMTQSPSSLSASVGDRVTITCRASQNVGTNVAWFQQKPGKAPKSLIYSASYRDSGVPSRFSGSGSGTDFTLTISSLQPEDFATYYCQQYNSYPLTFGGGTKVEIKR	6.14
v28712 (antibody, human IgG1, kappa, L234A L235A, V domains shown, also called humanized 5G8 H4L3) VH: QVQLQESGPGLVKPSETLSITCTVSGFSLISYGVHWVRQPPGKGLEWLGVIWSGGSTDYNPSLKSRVTISKDNSKNQVSFKLSSLTAADTAIYYCARNPLTATVMDYWGQGTLVTVSS VL: DIQMTQSPSSLSASVGDRVTVTCRASQNVGTNVAWYQQKPGKAPKALIYSASYRDSGVPSRFSGSGSGTDFTLTISSVQPEDFATYYCQQYNSYPLTFGGGTKLEIKR	6.64

# input Find the recorded pKd belonging to v28700 (antibody, human IgG1, kappa, L234A L235A, V domains shown, also called humanized 5G8 H2L2) VH: QVQLQESGPGLVKPSETLSLTCTVSGFSLISYGVHWVRQPPGKGLEWLGVIWSGGSTDYNPSLKSRVTISKDTSKNQFSLKLSSVTAADTAVYYCARNPLTATVMDYWGQGTLVTVSS VL: DIQMTQSPSSLSASVGDRVTITCRASQNVGTNVAWYQQKPGKAPKALIYSASYRDSGVPSRFSGSGSGTDFTLTISSLQPEDFATYYCQQYNSYPLTFGGGTKVEIKR and report it.
# output 6.65

# input Find the recorded pKd belonging to v28713 (antibody, human IgG1, kappa, L234A L235A, V domains shown, also called humanized 5G8 H4L4) VH: QVQLQESGPGLVKPSETLSITCTVSGFSLISYGVHWVRQPPGKGLEWLGVIWSGGSTDYNPSLKSRVTISKDNSKNQVSFKLSSLTAADTAIYYCARNPLTATVMDYWGQGTLVTVSS VL: DIQMTQSPSSLSASVGDRVTVTCRASQNVGTNVAWYQQKPGKAPKALIYSASYRDSGVPSRFSGSGSGTDFTLTISSVQPEDLATYYCQQYNSYPLTFGGGTKLEIKR and report it.
# output 6.74

Data credit: patent US20230052369A1
